Study Target: T1, human OX40 expressed on cells (human, UniProt P43489 29-277)
T1 construct: whole, on cells
T1 sequence (looked up): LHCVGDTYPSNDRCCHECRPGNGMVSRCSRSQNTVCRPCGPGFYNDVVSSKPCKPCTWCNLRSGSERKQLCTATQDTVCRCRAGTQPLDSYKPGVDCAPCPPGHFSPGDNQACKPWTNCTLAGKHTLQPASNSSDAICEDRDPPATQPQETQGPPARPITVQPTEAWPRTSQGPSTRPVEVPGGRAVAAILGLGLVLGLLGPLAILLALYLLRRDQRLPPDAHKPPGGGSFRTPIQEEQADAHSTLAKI
Experiment Notes: flow cytometry on activated human CD4+ T cells, fitted MFI curve
Experimental Readout: Top
Lab note: write the figure by itself, no unit.

Record excerpt, results attached:
O32 (antibody, V domains shown) VH: EVQLLESGGGLVQPGGSLRLSCAASGFTFSSYSMSWVRQAPGKGLEWVSVISSGGGSTYYADSVKGRFTISRDNSKNTLYLQMNSLRAEDTAVYYCARHWRYFDYWGQGTLVTVSS VL: QSVLTQPPSASGTPGQRVTISCSGSSSNIGNNYVSWYQQLPGTAPKLLIYADSKRPSGVPDRFSGSKSGTSASLAISGLRSEDEADYYCGAWDSSLSGYVFGGGTKLTVLG | 102
O35 (antibody, V domains shown) VH: EVQLLESGGGLVQPGGSLRLSCAASGFTFSDYSMSWVRQAPGKGLEWVSAISSDGGSTYYADSVKGRFTISRDNSKNTLYLQMNSLRAEDTAVYYCARRWQTFDYWGQGTLVTVSS VL: QSVLTQPPSASGTPGQRVTISCTGSSSNIGSNAVSWYQQLPGTAPKLLIYHDSHPPSGVPDRFSGSKSGTSASLAISGLRSEDEADYYCGAWDSSLSGYVFGGGTKLTVLG | 97.3
O410 (antibody, human IgG1, lambda, V domains shown) VH: EVQLLESGGGLVQPGGSLRLSCAASGFTFSDYYMSWVRQAPGKGLEWVSGIYSDGSRKYYADSVKGRFTISRDNSKNTLYLQMNSLRAEDTAVYYCARHWSRFDYWGQGTLVTVSS VL: QSVLTQPPSASGTPGQRVTISCSGSSSNIGSNYVTWYQQLPRTAPKLLIYYDSNRPSGVPDRFSGSKSGTSASLAISGLRSEDEADYYCGAWDDSLSGYVFGGGTKLTVLG | 95.9
O34 (antibody, V domains shown) VH: EVQLLESGGGLVQPGGSLRLSCAASGFTFSDYYMSWVRQAPGKGLEWVSGISSSGGNKYYADSVKGRFTISRDNSKNTLYLQMNSLRAEDTAVYYCARHWKRFDYWGQGTLVTVSS VL: QSVLTQPPSASGTPGQRVTISCTGPSSNIGNNDVSWYQQLPGTAPKLLIYANSNRPSGVSDRFSGSKSGTSASLAISGLRSEDEADYYCGTWDYSLSGYVLGGGTKLTVLG | 99.9

input: Any idea what Top was measured for O15 (antibody, V domains shown) VH: EVQLLESGGGLVQPGGSLRLSCAASGFTFSSYSMSWVRQAPGKGLEWVSMISSGGGSTYYADSVKGRFTISRDNSKNTLYLQMNSLRAEDTAVYYCARHWRYFDYWGQGTLVTVSS VL: QSVLTQPPSASGTPGQRVTISCSGSSSNIGNNYVSWYQQLPGTAPKLLIYADSKRPSGVPDRFSGSKSGTSASLAISGLRSEDEADYYCGAWDSSLSGYVFGGGTKLTVLG ?
output: 102

input: Any idea what Top was measured for O212 (antibody, V domains shown, also called O212 antibody) VH: EVQLLESGGGLVQPGGSLRLSCAASGFTFSDYAMSWVRQAPGKGLEWVSWIYYDSGSKYYADSVKGRFTISRDNSKNTLYLQMNSLRAEDTAVYYCAKGPGPNGQLAFDYWGQGTLVTVSS VL: QSVLTQPPSASGTPGQRVTISCTGSSSNIGSNSVSWYQQLPGTAPKLLIYANSHRPSGVPDRFSGSKSGTSASLAISGLRSEDEADYYCGAWDYSLSGYVFGGGTKLTVLG ?
output: 99.4
